system: SNB-75; experiment: NCI tumour cell line growth inhibition, 48 h
Activity calls are given as the source filed them. No stated cut-off is given here; in the data, active = GI50 up to about 1.1 µM and inactive = higher.
Can you answer with just one of these options? active, inactive

Take a look at these entries with their results.
compound=COc1ccc2nc3c(C(=O)NCCN(C)C)cccc3cc2c1 class_label=inactive
compound=CN=C(n1ccnc1)n1ccnc1 class_label=inactive
compound=C/C(=N\N=C(/S)N1CCCCCC1)c1cccc[n+]1[O-] class_label=inactive

-- ask What classification did CN(C)CCCN1C(=O)N(CCCN(C)C)c2c3cc(O)ccc3nc3c([N+](=O)[O-])ccc1c23 end up with in this test?
-- reply inactive

-- ask What classification did NCC(O)CN.Oc1c(Cl)c(Cl)c(Cl)c(Cl)c1Cl end up with in this test?
-- reply inactive

-- ask What classification did CCC1C(=O)C[C@H]2[C@@H]3C(O)CC4=CC(=O)CC[C@]4(C)[C@H]3CC[C@]12C (stereo partly specified) end up with in this test?
-- reply inactive

-- ask What classification did C=CCOn1c(C=C)nc2ccc(C)cc21 end up with in this test?
-- reply inactive

-- ask What classification did CCOC(=O)N/N=C(/N)Cc1ccccc1 end up with in this test?
-- reply inactive

-- ask What classification did CCN(CC)CCCNc1[nH]c2ccccc2c2nc3ccc(OC)cc3c1-2 end up with in this test?
-- reply inactive

-- ask What classification did C/C(=N\Nc1nc2ccccc2s1)c1ncccn1 end up with in this test?
-- reply active

-- ask What classification did COc1ccc2cc(CN3CCC(C4CCN(Cc5ccc6cc(OC)ccc6c5)CC4)CC3)ccc2c1 end up with in this test?
-- reply inactive
